For each entry below, report its pIC50 value.
System: control (Neo) cells
MEASUREMENT DESCRIPTION: Oxygen consumption rate (OCR) assay, control (Neo) HEK293 cells
Assay type: cell-based
EXPERIMENTAL CONDITIONS: Homo sapiens, HEK293, 2 h, read-out: Oxygen Consumption Rate (OCR) IC50, Neo
Description: Diabetologia 2011, 54 (12): 3101-3110, each incorporated by reference with regard to such testing. […] HEK293 cells transformed with human organic cation transporters were plated in collagen coated, 96-well black-walled microclear plates (Greiner-Bio 1, #655956) at 60,000 cells per well in growth medium (DMEM (LG), 10% FBS, 400 μg/ml G418). […] Dual read time-resolved fluorescence (BMG FluoStar Galaxy reader) was measured over 2 hours with measurements taken every 2 minutes. […]
Where a name gives a salt, the structure may show the parent alone.
Please express pIC50 as -log10 of the molar concentration.

## Task Look up pIC50 for this compound: N=C(N)NC(=N)NCCc1c[nH]c2cccc(F)c12 [Ex 26, trifluoroacetic acid salt]
## Result 4.05

## Task Look up pIC50 for this compound: N=C(N)NC(=N)NCCc1c[nH]c2cccc(Cl)c12 [Ex 34, trifluoroacetic acid salt]
## Result 3.74

## Task Look up pIC50 for this compound: N=C(N)NC(=N)NCCc1c[nH]c2c(F)c(F)c(F)c(F)c12 [Ex 42, trifluoroacetic acid salt]
## Result 3.89

## Task Look up pIC50 for this compound: N=C(N)NC(=N)NCCc1c[nH]c2c(F)c(F)c(F)cc12 [Ex 41, trifluoroacetic acid salt]
## Result 3.34

## Task Look up pIC50 for this compound: `N=C(N)NC(=N)NCCc1c[nH]c2c(F)cccc12`
## Result 3.17

## Task Look up pIC50 for this compound: N=C(N)NC(=N)NCCc1c[nH]c2cc(F)ccc12 [Ex 11, Trifluoroacetic Acid Salt]
## Result 3.67
